These entries and their values trace back to patent US7196110B2.

target desc: PDGF-receptor beta enzyme comprising the tyrosine kinase domain (Homo sapiens)
Construct: from amino acid 545 to 1106 of GenBank Access NO: AAA36427
Sequence (P09619 545-1106): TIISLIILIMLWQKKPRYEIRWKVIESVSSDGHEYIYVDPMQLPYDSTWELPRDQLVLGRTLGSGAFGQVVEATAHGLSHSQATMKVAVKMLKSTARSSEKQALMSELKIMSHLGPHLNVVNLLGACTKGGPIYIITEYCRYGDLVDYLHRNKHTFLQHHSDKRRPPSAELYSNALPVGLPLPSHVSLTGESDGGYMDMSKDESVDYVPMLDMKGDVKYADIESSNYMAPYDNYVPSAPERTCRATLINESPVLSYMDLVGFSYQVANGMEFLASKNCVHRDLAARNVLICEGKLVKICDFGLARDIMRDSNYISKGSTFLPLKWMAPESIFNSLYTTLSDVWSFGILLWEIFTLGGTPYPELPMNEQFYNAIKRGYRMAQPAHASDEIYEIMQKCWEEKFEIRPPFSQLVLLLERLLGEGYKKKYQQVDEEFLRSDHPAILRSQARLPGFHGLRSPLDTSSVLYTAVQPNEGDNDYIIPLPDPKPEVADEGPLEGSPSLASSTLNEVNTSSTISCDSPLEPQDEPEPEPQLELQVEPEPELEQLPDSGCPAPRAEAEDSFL
measurement protocol: Inhibition of PDGF-receptor kinase activity (cell-free, PLC1 peptide, 33P Flashplate)
Assay type: biochemical
run parameters: PDGF-R kinase activity; read-out: IC50
pIC50: −log10 of the molar value.
endpoint name: pIC50

>>> measured_number("COc1cc2c(cc1OC)-c1n[nH]c(NCc3cc(Cl)cc(Cl)c3)c1C2")
5.16

[1] CC(C)(C)c1cc(Nc2[nH]nc3c2Cc2cc(F)ccc2-3)cc(C(C)(C)C)c1
[2] COc1cc2c(cc1OC)-c1n[nH]c(Nc3c(F)cccc3F)c1C2
Given 1 and given 2 , which shows the smaller recorded pIC50? Write the label of whichever entry you select.
1

---

These molecules were tested on c-Abl kinase (Abelson murine leukemia virus, UniProt P00521); IC50 is the recorded read-out.
Sequence (P00521 115-385): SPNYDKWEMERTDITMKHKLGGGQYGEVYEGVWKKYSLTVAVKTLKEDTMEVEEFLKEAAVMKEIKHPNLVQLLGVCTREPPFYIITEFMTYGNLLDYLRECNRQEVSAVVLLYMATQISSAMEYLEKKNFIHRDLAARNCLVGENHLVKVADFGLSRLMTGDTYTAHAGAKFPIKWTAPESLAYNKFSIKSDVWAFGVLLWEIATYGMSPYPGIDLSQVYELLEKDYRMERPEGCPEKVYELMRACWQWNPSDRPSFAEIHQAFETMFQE
Express it in nM; write the number only.

>>> measured_number("COc1cc2c(cc1OCC(O)CN1CCCC1)Cc1c-2n[nH]c1Nc1cccc(Cl)c1 (centres unmarked) [Compound 282]")
43
>>> measured_number("COC(=O)c1cccc(Nc2[nH]nc3c2Cc2cc(OCCCN4CCOCC4)c(OC)cc2-3)c1 [Compound 133]")
498
>>> measured_number("COc1cc2c(cc1OC)-c1c(c(Nc3cccc(F)c3)nn1C(=O)COC(C)=O)C2 [Compound 467]")
244
>>> measured_number("COc1cccc(Nc2[nH]nc3c2Cc2cc(OCCCO)c(OC)cc2-3)c1 [Compound 266]")
15
>>> measured_number("COc1cc2c(cc1OCC(O)CN1CCCC1)Cc1c-2n[nH]c1Nc1cccc(F)c1 (centres unmarked) [Compound 269]")
101
>>> measured_number("Clc1cccc(Nc2[nH]nc3c2Cc2cc4c(cc2-3)OCO4)c1 [Compound 128]")
313
>>> measured_number("COc1cc2c(cc1OCC(O)CO)Cc1c-2n[nH]c1NCc1c(F)cccc1F (centres unmarked) [Compound 457]")
4
>>> measured_number("COc1cc2c(cc1OC)-c1n[nH]c(Nc3cccc(SC)c3)c1C2 [Compound 208]")
9

I'm curious: which IC50 was measured for COc1cc2c(cc1OCCCN(C)C)Cc1c-2n[nH]c1Nc1ccc(F)c(Cl)c1 [Compound 200] tested on c-Abl kinase (Abelson murine leukemia virus, UniProt P00521)?
20

I'm curious: which IC50 was measured for CN(C)CCCOc1ccc2c(c1)Cc1c-2n[nH]c1Nc1cccc(F)c1 [Compound 160] tested on c-Abl kinase (Abelson murine leukemia virus, UniProt P00521)?
1020

I'm curious: which IC50 was measured for COc1cc2c(cc1OCCCO)Cc1c-2n[nH]c1NCc1ccccc1F [Compound 386] tested on c-Abl kinase (Abelson murine leukemia virus, UniProt P00521)?
20

I'm curious: which IC50 was measured for COc1cccc(Nc2[nH]nc3c2Cc2cc(OCC(O)CO)c(OC)cc2-3)c1 (centres unmarked) [Compound 260] tested on c-Abl kinase (Abelson murine leukemia virus, UniProt P00521)?
13

---

These molecules were tested on UniProtKB P00521; IC50 is the recorded read-out.
Express it in nM; write the number only.

>>> measured_number("COc1cc2c(cc1OCCCN1CCCC1)Cc1c-2n[nH]c1Nc1cccc(F)c1")
82

I'm curious: which IC50 was measured for COc1cc2c(cc1OCC(O)CN1CCCC1)Cc1c-2n[nH]c1Nc1cccnc1 (stereo not shown) tested on UniProtKB P00521?
1580

I'm curious: which IC50 was measured for COc1cc2c(cc1OCC(O)CO)Cc1c-2n[nH]c1Nc1ccc(F)c(Cl)c1 (stereo not shown) tested on UniProtKB P00521?
64

I'm curious: which IC50 was measured for COc1cc2c(cc1OC)-c1c(c(Nc3cccc(F)c3)nn1C(=O)CCC(=O)O)C2 tested on UniProtKB P00521?
191

I'm curious: which IC50 was measured for CC(O)c1cccc(Nc2[nH]nc3c2Cc2cc(F)ccc2-3)c1 (stereo not shown) tested on UniProtKB P00521?
2400

I'm curious: which IC50 was measured for COc1cc2c(cc1OCCCN1CCOCC1)Cc1c-2n[nH]c1Nc1cccc(Cl)c1 tested on UniProtKB P00521?
665

I'm curious: which IC50 was measured for COc1cc2c(cc1OC)-c1n[nH]c(Nc3ccc(F)cc3)c1C2 tested on UniProtKB P00521?
173

I'm curious: which IC50 was measured for COc1cc2c(cc1OC)-c1n[nH]c(Nc3ccccc3)c1C2 tested on UniProtKB P00521?
11

I'm curious: which IC50 was measured for COc1cc2c(cc1F)Cc1c-2n[nH]c1Nc1ccc(F)c(Cl)c1 tested on UniProtKB P00521?
143

I'm curious: which IC50 was measured for Cc1ccc2c(c1)-c1n[nH]c(Nc3ccccc3)c1C2 tested on UniProtKB P00521?
19

I'm curious: which IC50 was measured for COc1ccc(OC)c(Nc2[nH]nc3c2Cc2ccccc2-3)c1 tested on UniProtKB P00521?
350

I'm curious: which IC50 was measured for COc1cc2c(cc1OC)-c1n[nH]c(Nc3cccc(Br)c3)c1C2 tested on UniProtKB P00521?
7

I'm curious: which IC50 was measured for COc1cc2c(cc1OCCCO)Cc1c-2n[nH]c1NCc1c(Cl)cccc1Cl tested on UniProtKB P00521?
3

I'm curious: which IC50 was measured for COc1cc2c(cc1OC)C(C)c1c-2n[nH]c1Nc1cccc(Br)c1 (stereo not shown) tested on UniProtKB P00521?
55

I'm curious: which IC50 was measured for COc1cc2c(cc1OC)-c1n[nH]c(Nc3cccnc3)c1C2 tested on UniProtKB P00521?
491
